pEC50 reference
Molecular target: T1, human alpha2-Antiplasmin (human, UniProt P08697 40-491)
T1 construct: Bought (antibodies online, ABIN2544306); also called human A2AP; a2AP
T1 sequence: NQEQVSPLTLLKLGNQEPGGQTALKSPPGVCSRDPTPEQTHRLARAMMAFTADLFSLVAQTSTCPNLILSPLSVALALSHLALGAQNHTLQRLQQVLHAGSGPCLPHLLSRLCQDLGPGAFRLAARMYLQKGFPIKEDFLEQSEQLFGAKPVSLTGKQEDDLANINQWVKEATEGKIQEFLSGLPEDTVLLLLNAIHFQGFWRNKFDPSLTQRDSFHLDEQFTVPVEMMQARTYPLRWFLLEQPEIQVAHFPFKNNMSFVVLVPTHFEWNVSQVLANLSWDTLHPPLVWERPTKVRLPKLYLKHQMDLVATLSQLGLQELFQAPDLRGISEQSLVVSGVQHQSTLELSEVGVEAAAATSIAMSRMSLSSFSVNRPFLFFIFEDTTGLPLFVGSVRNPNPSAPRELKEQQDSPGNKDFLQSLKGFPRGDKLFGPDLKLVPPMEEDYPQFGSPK
Assay: ELISA, coated antigen, quantified unpurified antibody, 1st exp.
pEC50: −log10 of the molar value.
measurement.name: pEC50

binder="TPP-17045 hIgG1 (antibody, V domains shown, Germline variant of TPP-14308) VH: EVQLLESGGGLVQPGGSLRLSCAASGFTFDDYAMSWVRQAPGKGLEWVSAIGTGGGTYYADSVKGRFTISRDNSKNTLYLQMNSLRAEDTAVYYCAKEGYDSSGYYHLDYWGQGTLVTVSS VL: QSVLTQPPSASGTPGQRVTISCTGSSSNIGATYDVHWYQQLPGTAPKLLIYSNNQRPSGVPDRFSGSKSGTSASLAISGLRSEDEADYYCAAWDWSLSGWVFGGGTKLTVLG" readout_number=10.07
binder="TPP-17051 hIgG1 (antibody, V domains shown, Germline variant of TPP-14308) VH: EVQLLESGGGLVQPGGSLRLSCAASGFTFDSYAMSWVRQAPGKGLEWVSAIGTGGSTYYADSVKGRFTISRDNSKNTLYLQMNSLRAEDTAVYYCAREGYDSSGYYHLDYWGQGTLVTVSS VL: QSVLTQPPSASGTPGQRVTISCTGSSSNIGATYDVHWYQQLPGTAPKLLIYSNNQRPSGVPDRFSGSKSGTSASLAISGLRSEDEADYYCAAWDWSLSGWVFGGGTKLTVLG" readout_number=9.96
binder="TPP-17048 hIgG1 (antibody, V domains shown, Germline variant of TPP-14308) VH: EVQLLESGGGLVQPGGSLRLSCAASGFTFSDYAMSWVRQAPGKGLEWVSAIGTGGSTYYADSVKGRFTISRDNSKNTLYLQMNSLRAEDTAVYYCAREGYDSSGYYHLDYWGQGTLVTVSS VL: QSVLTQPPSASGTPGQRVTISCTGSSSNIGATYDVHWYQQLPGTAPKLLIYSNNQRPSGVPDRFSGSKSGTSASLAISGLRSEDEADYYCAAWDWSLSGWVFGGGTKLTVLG" readout_number=9.74
